Target: T1, human BMP-11 (GDF-11; R&D Systems) (human, UniProt O95390 299-407)
T1 sequence (looked up): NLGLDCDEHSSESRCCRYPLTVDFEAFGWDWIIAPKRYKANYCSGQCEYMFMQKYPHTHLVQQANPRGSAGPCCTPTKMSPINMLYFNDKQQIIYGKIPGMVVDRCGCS
Test: cell-based or functional assay
// false strictly below 2 nM in ARE-luciferase IC50; true otherwise

Before answering, review these 7 worked examples.
>>> group_label("2987_D05 (designed binder) MGVSDVPRDLEVVAATPTSLLISWSLPHAGHAHYYRITYGETGGNSPVQEFTVPGRGVTATISGLKPGVDYTITVYAVTLTRSKIIHYMPISINYRTEIDKPSQHHHHHH")
"true"
>>> group_label("2524_H11 (designed binder) MGVSDVPRDLEVVAATPTSLLISWSLPHAGHAHYYRITYGETGGNSPVQEFTVPGRGVTATISGLKPGVDYTITVYAVTVSSTKVIVYLPISINYRTEIDKPSQHHHHHH")
"true"
>>> group_label("ATI-1277 [N-ethylmaleimide] (designed binder, N-ethylmaleimide on the Cys of the EGSGC tail, cysteine mutant of 2525_D05) MGVSDVPRDLEVVAATPTSLLISWSLPYAGHLNYYRITYGETGGNSPVQEFTVPGRGVTATISGLKPGVDYTITVYAVTLTKSQLIHYMPISINYRTEGSGCHHHHHH")
"false"
>>> group_label("3008_G03 (designed binder) MGVSDVPRDLEVVAATPTSLLISWSLPHPGLGHYYRITYGETGGNSPVQEFTVPGRGVTATISGLKPGVDYTITVYAVTITPETIIVYKPISINYRTEIDKPSQHHHHHH")
"false"
>>> group_label("3115_D04 (designed binder) MGVSDVPRDLEVVAATPTSLLISWDAPRGLARYYRITYGETGGNSPVQEFTVFGRGTTATISGLKPGVDYTITVYAVTIDRDGTRSFDPISINYRTEIDKPSQHHHHHH")
"true"
>>> group_label("3007_C09 (designed binder) MGVSDVPRDLEVVAATPTSLLISWSLPHRGVANYYRITYGETGGNSPVQEFTVPGRGVTATISGLKPGVDYTITVYAVTLTGANVIIYKPISINYRTEIDKPSQHHHHHH")
"false"
>>> group_label("3116_H06 (designed binder) MGVSDVPRDLEVVAATPTSLLISWDAPAGLARYYRITYGETGGNSPVQEFTVVGRGNTATISGLKPGVDYTITVYAVTIFRDGVVNYGPISINYRTEIDKPSQHHHHHH")
"false"

Inquiry: # bool: ARE-luciferase IC50 of 3008_F01 (designed binder) MGVSDVPRDLEVVAATPTSLLISWSLPRQGLANYYRITYGETGGNSPVQEFTVPGRGVTATISGLKPGVDYTITVYAVTVTAAGVIIYKPISINYRTEIDKPSQHHHHHH >= 2 nM
Reply text: false
